tested on: Staphylococcus aureus; experiment: Antibacterial activity against Staphylococcus aureus ATCC 29213 = CCM 4223 assessed as inhibition of bacterial growth incubated for 24 hrs in presence of BSA by microdilution assay; assay type: functional
Please go through the items and note down their MIC.
Express the result in µg/mL but write the number alone.

Value of MIC reported for the molecule CCCCCCCCCCOP(=O)(CCN(CCCN)CCCN)OCCCCCCOP(=O)(CCN(CCCN)CCCN)OCCCCCCCCCC.Cl.Cl.Cl.Cl.Cl.Cl (centres undefined) is 0.2

Value of MIC reported for the molecule CCCCCOP(=O)(CCN(CCCN)CCCN)OCCCCCCCCOP(=O)(CCN(CCCN)CCCN)OCCCCC.Cl.Cl.Cl.Cl.Cl.Cl (centres undefined) is 32

Value of MIC reported for the molecule Cl.Cl.Cl.Cl.Cl.Cl.NCCCN(CCCN)CCP(=O)(OCCCCCCCCCCOP(=O)(CCN(CCCN)CCCN)OCCc1ccccc1)OCCc1ccccc1 (centres undefined) is 4

Value of MIC reported for the molecule CCCCCCCOP(=O)(CCN(CCCN)CCCN)OCCCCOP(=O)(CCN(CCCN)CCCN)OCCCCCCC.Cl.Cl.Cl.Cl.Cl.Cl (centres undefined) is 8

Value of MIC reported for the molecule CC/C=C\CCCOP(=O)(CCN(CCCN)CCCN)OCCCCCCOP(=O)(CCN(CCCN)CCCN)OCCC/C=C\CC.Cl.Cl.Cl.Cl.Cl.Cl (centres undefined) is 16

Value of MIC reported for the molecule CCCCCCOP(=O)(CCN(CCN)CCN)OCCCCCCCCOP(=O)(CCN(CCN)CCN)OCCCCCC.Cl.Cl.Cl.Cl.Cl.Cl (centres undefined) is 1

Value of MIC reported for the molecule CCC/C=C\CCOP(=O)(CCN(CCCN)CCCN)OCCCCCOP(=O)(CCN(CCCN)CCCN)OCC/C=C\CCC.Cl.Cl.Cl.Cl.Cl.Cl (centres undefined) is 64

Value of MIC reported for the molecule CCC/C=C\CCOP(=O)(CCN(CCCN)CCCN)OCCCCCCCCOP(=O)(CCN(CCCN)CCCN)OCC/C=C\CCC.Cl.Cl.Cl.Cl.Cl.Cl (centres undefined) is 8

Value of MIC reported for the molecule CCCCCCOP(=O)(CCN(CCCN)CCCN)OCCCCCCCCCCOP(=O)(CCN(CCCN)CCCN)OCCCCCC.Cl.Cl.Cl.Cl.Cl.Cl (centres undefined) is 3

Value of MIC reported for the molecule CCCC/C=C\CCOP(=O)(CCN(CCCN)CCCN)OCCCCCCOP(=O)(CCN(CCCN)CCCN)OCC/C=C\CCCC.Cl.Cl.Cl.Cl.Cl.Cl (centres undefined) is 4

Value of MIC reported for the molecule CCCCCCCOP(=O)(CCN(CCCN)CCCN)OCCCCCCCOP(=O)(CCN(CCCN)CCCN)OCCCCCCC.Cl.Cl.Cl.Cl.Cl.Cl (centres undefined) is 1

---

Please go through the items and note down their HC50 at 3 h.
test: Hemolytic activity in human RBC assessed as haemoglobin release measured after 3 hr; format: toxicity, cell-based, Erythrocyte; settings: red blood cells (erythrocytes)
Express the result in µg/mL but write the number alone.

Value of HC50 at 3 h reported for the compound CCCC/C=C\CCOP(=O)(CCN(CCCNC(=N)N)CCCNC(=N)N)OCCCCCCOP(=O)(CCN(CCCNC(=N)N)CCCNC(=N)N)OCC/C=C\CCCC.Cl.Cl.Cl.Cl.Cl.Cl (stereo unspecified) is 169

Value of HC50 at 3 h reported for the compound CCCCCCCCOP(=O)(CCN(CCCN)CCCN)OCCCCCCCCOP(=O)(CCN(CCCN)CCCN)OCCCCCCCC.Cl.Cl.Cl.Cl.Cl.Cl (stereo unspecified) is 683

Value of HC50 at 3 h reported for the compound CCCCCCOP(=O)(CCN(CCCN)CCCN)OCCCCCCCCCCOP(=O)(CCN(CCCN)CCCN)OCCCCCC.Cl.Cl.Cl.Cl.Cl.Cl (stereo unspecified) is 743

Value of HC50 at 3 h reported for the compound CCCCCCOP(=O)(CCN(CCN)CCN)OCCCCCCCCOP(=O)(CCN(CCN)CCN)OCCCCCC.Cl.Cl.Cl.Cl.Cl.Cl (stereo unspecified) is 231

Value of HC50 at 3 h reported for the compound Cl.Cl.Cl.Cl.Cl.Cl.NCCCN(CCCN)CCP(=O)(OCCCCCCOP(=O)(CCN(CCCN)CCCN)OCCC12CC3CC(CC(C3)C1)C2)OCCC12CC3CC(CC(C3)C1)C2 (stereo unspecified) is 72.2

---

assay: Toxicity in rabbit assessed as maximum tolerated dose administered orally; parameters: species or system Oryctolagus cuniculus; details: in vivo, route po
Experimental endpoint: MTD

Value of MTD reported for the compound CCCCCCCCOP(=O)(CCN(CCCN)CCCN)OCCCCOP(=O)(CCN(CCCN)CCCN)OCCCCCCCC.Cl.Cl.Cl.Cl.Cl.Cl (stereo unspecified) is > 200 mg/kg

---

test system: Staphylococcus aureus; assay: Antibacterial activity against […] Staphylococcus aureus 4460/A assessed as reduction in microbial growth incubated for 24 hrs by microdilution assay; assay type: functional
Friendly reminder: MIC below 0.5 µg/mL is 1.0, at or above is 0.0.

[ask] Please let me know if CCCC/C=C\CCOP(=O)(CCN(CCCN)CCCN)OCCCCCOP(=O)(CCN(CCCN)CCCN)OCC/C=C\CCCC.Cl.Cl.Cl.Cl.Cl.Cl (stereo not given) shows MIC below 0.5 µg/mL.
[reply] 0.0

[ask] Please let me know if CCC[C@@H]1C[C@@H](C(=O)N[C@@H]([C@H]2O[C@H](SC)[C@H](O)[C@@H](O)[C@H]2O)[C@H](C)Cl)N(C)C1 [CLINDAMYCIN] shows MIC below 0.5 µg/mL.
[reply] 1.0

[ask] Please let me know if Cc1onc(-c2ccccc2)c1C(=O)N[C@@H]1C(=O)N2[C@@H]1SC(C)(C)[C@@H]2C(=O)O [OXACILLIN] shows MIC below 0.5 µg/mL.
[reply] 1.0

[ask] Please let me know if CC1(C)S[C@@H]2[C@H](NC(=O)[C@H](N)c3ccccc3)C(=O)N2[C@H]1C(=O)O [AMPICILLIN] shows MIC below 0.5 µg/mL.
[reply] 0.0

---

Please go through the items and note down their MIC.
tested on: Staphylococcus epidermidis; assay: Antibacterial activity against Staphylococcus epidermidis CCM 7221 assessed as inhibition of bacterial growth incubated for 24 hrs by microdilution assay; format: functional
// return the numeric value with its unit appended

Value of MIC reported for the compound CCC/C=C\CCOP(=O)(CCN(CCCNC(=N)N)CCCNC(=N)N)OCCCCCCOP(=O)(CCN(CCCNC(=N)N)CCCNC(=N)N)OCC/C=C\CCC.Cl.Cl.Cl.Cl.Cl.Cl (stereo unspecified) is 2 µg/mL

Value of MIC reported for the compound CCCCCCCCOP(=O)(CCN(CCCN)CCCN)OCCCOP(=O)(CCN(CCCN)CCCN)OCCCCCCCC.Cl.Cl.Cl.Cl.Cl.Cl (stereo unspecified) is 2 µg/mL

Value of MIC reported for the compound CCCCCCOP(=O)(CCN(CCCNC(=N)N)CCCNC(=N)N)OCCCCCCCCOP(=O)(CCN(CCCNC(=N)N)CCCNC(=N)N)OCCCCCC.Cl.Cl.Cl.Cl.Cl.Cl (stereo unspecified) is 0.5 µg/mL

Value of MIC reported for the compound CCCC/C=C\CCOP(=O)(CCN(CCCN)CCCN)OCCCOP(=O)(CCN(CCCN)CCCN)OCC/C=C\CCCC.Cl.Cl.Cl.Cl.Cl.Cl (stereo unspecified) is 8 µg/mL

Value of MIC reported for the compound CCCCCOP(=O)(CCN(CCCN)CCCN)OCCCCCCCCCCOP(=O)(CCN(CCCN)CCCN)OCCCCC.Cl.Cl.Cl.Cl.Cl.Cl (stereo unspecified) is 1 µg/mL

Value of MIC reported for the compound CCCCC/C=C\CCOP(=O)(CCN(CCCN)CCCN)OCCCCCCOP(=O)(CCN(CCCN)CCCN)OCC/C=C\CCCCC.Cl.Cl.Cl.Cl.Cl.Cl (stereo unspecified) is 0.5 µg/mL

---

test: Hemolytic activity in human RBC assessed as haemoglobin release measured after 3 hr; assay type: toxicity, cell-based, Erythrocyte; settings: red blood cells (erythrocytes)
Please go through the items and note down their HC50 at 3 h.
Express the result in µg/mL but write the number alone.

Value of HC50 at 3 h reported for the compound CCCCCCCCOP(=O)(CCN(CCCN)CCCN)OCCCCOP(=O)(CCN(CCCN)CCCN)OCCCCCCCC.Cl.Cl.Cl.Cl.Cl.Cl (centres undefined) is 263

Value of HC50 at 3 h reported for the compound CCCCCCCCOP(=O)(CCN(CCN)CCN)OCCCCCCOP(=O)(CCN(CCN)CCN)OCCCCCCCC.Cl.Cl.Cl.Cl.Cl.Cl (centres undefined) is 79
